- experimentalTarget: Beta-glucosidase (Agrobacterium sp. ATCC 21400, UniProt P12614)
- Sequence (P12614 whole entry): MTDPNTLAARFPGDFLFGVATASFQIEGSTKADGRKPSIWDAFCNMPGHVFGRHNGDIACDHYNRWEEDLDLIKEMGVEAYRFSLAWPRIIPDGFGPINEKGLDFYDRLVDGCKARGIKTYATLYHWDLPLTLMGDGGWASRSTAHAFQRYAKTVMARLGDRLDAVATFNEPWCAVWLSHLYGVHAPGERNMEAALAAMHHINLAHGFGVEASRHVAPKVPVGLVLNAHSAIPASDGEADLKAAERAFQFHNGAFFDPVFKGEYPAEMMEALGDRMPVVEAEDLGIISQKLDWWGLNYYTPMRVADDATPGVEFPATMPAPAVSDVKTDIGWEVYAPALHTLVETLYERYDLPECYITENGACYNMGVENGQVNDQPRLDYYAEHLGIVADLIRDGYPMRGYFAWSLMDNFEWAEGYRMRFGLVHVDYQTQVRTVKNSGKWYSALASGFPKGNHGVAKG
Exercise: state measured Ki for each of the compounds provided.
Answers are plain numbers, in µM.

Please give Ki, item by item, for the list that follows.
1. COC(=O)CCCCCNC(=O)[C@H](CCCCN1C[C@@H](O)[C@@H](O)[C@H](O)[C@H]1CO)NS(=O)(=O)c1cccc2c(N(C)C)cccc12
2. COC(=O)CCCCCNC(=O)[C@H](CCCCN1C[C@H](O)[C@@H](O)[C@H](O)[C@H]1CO)NS(=O)(=O)c1cccc2c(N(C)C)cccc12
3. COC(=O)CCCCCNC(=O)CCCCCN1[C@H](CO)[C@@H](O)[C@H](O)[C@H]1CNS(=O)(=O)c1cccc2c(N(C)C)cccc12

Result:
1. 1000
2. 6.2
3. 0.9
